This collection of values is drawn from patent US4401660A.

test system: Haemophilus influenzae R252; assay: MIC, standard agar-dilution assay (Table II); format: cell-based; design: unit not given here; conditions: Haemophilus influenzae R252, ampicillin-resistant strain
Rule: Yes for minimal inhibitory concentration (MIC) not less than 2, No for anything less.

COMPOUND	ASSIGNED_LABEL
CCC1OC(=O)CC(O)C(C)C(OC2OC(C)C(O)C(N(C)C)C2OC(C)=O)C(CC=O)CC(C)C(=O)C=CC(C)=CC1COC(=O)CCc1ccccc1 (centres unmarked) [Compound 30]	No
CCC1OC(=O)CC(O)C(C)C(OC2OC(C)C(O)C(N(C)C)C2O)C(CC=O)CC(C)C(=O)C=CC(C)=CC1COC(=O)CC(C)C (centres unmarked) [Compound 22]	Yes
CCC(=O)OC1C(C)OC(OC2C(CC=O)CC(C)C(=O)C=CC(C)=CC(CO)C(CC)OC(=O)CC(O)C2C)C(OC(=O)CC)C1N(C)C (centres unmarked) [Compound 4]	Yes
CCC1OC(=O)CC(O)C(C)C(OC2OC(C)C(O)C(N(C)C)C2OC(C)=O)C(CC=O)CC(C)C(=O)C=CC(C)=CC1COC(=O)C12CC3CC(CC(C3)C1)C2 (centres unmarked) [Compound 69]	Yes
CCCCCCCC(=O)OCC1C=C(C)C=CC(=O)C(C)CC(CC=O)C(OC2OC(C)C(OC(C)=O)C(N(C)C)C2OC(C)=O)C(C)C(O)CC(=O)OC1CC (centres unmarked) [Compound 23]	Yes
CCC1OC(=O)CC(O)C(C)C(OC2OC(C)C(OC(C)=O)C(N(C)C)C2OC(C)=O)C(CC=O)CC(C)C(=O)C=CC(C)=CC1COC(=O)CC(C)C (centres unmarked) [Compound 21, 2',4'-Di-O-acetyl-23-O-i-valeryl-OMT]	Yes
CCC1OC(=O)CC(O)C(C)C(OC2OC(C)C(OC(C)=O)C(N(C)C)C2OC(C)=O)C(CC=O)CC(C)C(=O)C=CC(C)=CC1COC(=O)C(Cl)Cl (centres unmarked) [Compound 66]	No
CCC1OC(=O)CC(O)C(C)C(OC2OC(C)C(O)C(N(C)C)C2OC(C)=O)C(CC=O)CC(C)C(=O)C=CC(C)=CC1COC(=O)Cc1ccccc1 (centres unmarked) [Compound 28]	No
CCC1OC(=O)CC(O)C(C)C(OC2OC(C)C(OC(=O)CC(C)C)C(N(C)C)C2OC(C)=O)C(CC=O)CC(C)C(=O)C=CC(C)=CC1CO (centres unmarked) [Compound 49, 2'-O-Acetyl-4'-O-isovaleryl-OMT]	No
CCC(=O)OC1C(OC2C(CC=O)CC(C)C(=O)C=CC(C)=CC(COC(C)=O)C(CC)OC(=O)CC(O)C2C)OC(C)C(O)C1N(C)C (centres unmarked) [Compound 11]	Yes
CCC1OC(=O)CC(O)C(C)C(OC2OC(C)C(OC(C)=O)C(N(C)C)C2OC(C)=O)C(CC=O)CC(C)C(=O)C=CC(C)=CC1COC(=O)C(C)C (centres unmarked) [Compound 17]	Yes
CCC1OC(=O)CC(O)C(C)C(OC2OC(C)C(O)C(N(C)C)C2O)C(CC=O)CC(C)C(=O)C=CC(C)=CC1COS(=O)(=O)c1ccc(C)cc1 (centres unmarked) [Compound 46]	No
CCC1OC(=O)CC(O)C(C)C(OC2OC(C)C(OC(=O)c3ccccc3)C(N(C)C)C2OC(=O)c2ccccc2)C(CC=O)CC(C)C(=O)C=CC(C)=CC1CO (centres unmarked) [Compound 5, 2',4'-Di-O-benzoyl-OMT]	Yes

###

minimal inhibitory concentration (MIC) reference
system: Pasteurella multocida 40G; assay: MIC, broth-dilution microtiter test (Table III); assay type: cell-based; design: unit not given here
READOUT_NAME: minimal inhibitory concentration (MIC)

COMPOUND	TESTED_TARGET	OBS_VALUE
CCC(=O)OCC1C=C(C)C=CC(=O)C(C)CC(CC=O)C(OC2OC(C)C(OC(=O)CC)C(N(C)C)C2OC(=O)CC)C(C)C(O)CC(=O)OC1CC (centres unmarked) [Compound 8, 2',4',23-Tri-O-propionyl-OMT]	Pasteurella multocida 40G	1.56
CCC1OC(=O)CC(O)C(C)C(OC2OC(C)C(O)C(N(C)C)C2OC(C)=O)C(CC=O)CC(C)C(=O)C=CC(C)=CC1COC(C)=O (centres unmarked) [Compound 9]	Pasteurella multocida 40G	1.56
CCC1OC(=O)CC(O)C(C)C(OC2OC(C)C(OC(=O)c3ccccc3)C(N(C)C)C2OC(=O)c2ccccc2)C(CC=O)CC(C)C(=O)C=CC(C)=CC1CO (centres unmarked) [Compound 5, 2',4'-Di-O-benzoyl-OMT]	Pasteurella multocida 40G	50
CCC1OC(=O)CC(O)C(C)C(OC2OC(C)C(O)C(N(C)C)C2O)C(CC=O)CC(C)C(=O)C=CC(C)=CC1COS(=O)(=O)c1ccc(C)cc1 (centres unmarked) [Compound 46]	Pasteurella multocida 40G	6.25
CCC1OC(=O)CC(O)C(C)C(OC2OC(C)C(OC(C)=O)C(N(C)C)C2OC(C)=O)C(CC=O)CC(C)C(=O)C=CC(C)=CC1COS(=O)(=O)c1ccc(NC(C)=O)cc1 (centres unmarked) [Compound 47]	Pasteurella multocida 40G	12.5
CCC1OC(=O)CC(O)C(C)C(OC2OC(C)C(O)C(N(C)C)C2OC(C)=O)C(CC=O)CC(C)C(=O)C=CC(C)=CC1COC(=O)C12CC3CC(CC(C3)C1)C2 (centres unmarked) [Compound 69]	Pasteurella multocida 40G	12.5
CCC1OC(=O)CC(O)C(C)C(OC2OC(C)C(O)C(N(C)C)C2O)C(CC=O)CC(C)C(=O)C=CC(C)=CC1COC(=O)Cc1cc(OC)ccc1OC (centres unmarked) [Compound 63]	Pasteurella multocida 40G	3.12
CCC1OC(=O)CC(O)C(C)C(OC2OC(C)C(OC(C)=O)C(N(C)C)C2OC(C)=O)C(CC=O)CC(C)C(=O)C=CC(C)=CC1COC(=O)CSc1ccc(Cl)c(Cl)c1 (centres unmarked) [Compound 37]	Pasteurella multocida 40G	3.12

###

Recorded minimal inhibitory concentration (MIC) values for a group of compounds are listed next.
Test system: Staphylococcus epidermidis EPI1
Assay: MIC, standard agar-dilution assay (Table II)
Type: cell-based
Design: unit not given here
Experimental: The MIC's in Table II were determined by standard agar-dilution assays. The MIC's in Table III were obtained using a conventional broth-dilution microtiter test.

COMPOUND	minimal inhibitory concentration (MIC)
CCCC(=O)OCC1C=C(C)C=CC(=O)C(C)CC(CC=O)C(OC2OC(C)C(O)C(N(C)C)C2O)C(C)C(O)CC(=O)OC1CC (stereo not shown)	0.25
CCC1OC(=O)CC(O)C(C)C(OC2OC(C)C(O)C(N(C)C)C2OC(C)=O)C(CC=O)CC(C)C(=O)C=CC(C)=CC1COC(=O)Cc1ccccc1 (stereo not shown)	0.125
CCC1OC(=O)CC(O)C(C)C(OC2OC(C)C(O)C(N(C)C)C2O)C(CC=O)CC(C)C(=O)C=CC(C)=CC1COC(=O)CCc1ccccc1 (stereo not shown)	0.125
CCC1OC(=O)CC(O)C(C)C(OC2OC(C)C(O)C(N(C)C)C2OC(C)=O)C(CC=O)CC(C)C(=O)C=CC(C)=CC1COC(=O)CCCC(=O)OC (stereo not shown)	0.25
